# testDescription: folding stability dG unfold from trypsin proteolysis; higher = more stable
# folding stability dG unfold per record follows
Your answer is read as kcal/mol, so omit the unit and give the number.

The cases that follow already have their folding stability dG unfold on record.
SAGGSAGGSAGGSKETVKIAIKVKPGEKEITIEIKGKKYKVKVEEKDGLLYLTVSKEDLSAGGSAGGSAGGS [r4_430_TrROS_Hall] :: 4.4
SAGMDKPLKVLEIGGAILPNTGKVVLKAKVEDPDSNTPLDLTLTLPVVDPVTGKPYIFTASYTYESPLSAGG [r19_129_TrMRF] :: 0.338
SAGGSMIPLTVTRYDPNSDKPVSTTPVVYDPETGTWTAYPPDGSRTTYALSLEDLIAALPSTWSVGPSAGGS [r16_543_JUSTAS] :: 0.452

Below: the item to evaluate.
Tell me the measured folding stability dG unfold of SAGGKYVMFPFDSPEDLKDLLPPGYPVEIHMMPPKGKHRTRTFTPDEIKLELPPGENFYFMIKVKPPDSAGG [r13_461_TrROS] , please.
1.55

====

# testDescription: folding stability dG unfold from chymotrypsin proteolysis; higher = more stable
recordedEndpoint: folding stability dG unfold
Your answer should be a number followed by the unit of measure.

Please review the following examples before continuing.
SAGGSAVPTVRATFRYPDGLVAELEVPVLPDGTPRVVLRVGGVEREVSLEELARLPPEFELVSVDPSAGGSA [r2_431_TrMRF] :: 0.996 kcal/mol
SAKFRVSISYDPPDGYLTIMFRYPNPNQPITPEEIEEIAREILEERGHKVKIDEIHHEGNYFMIKIKLPSAG [r14_556_TrROS] :: 2.54 kcal/mol
SAGWYIKIKIEYPGDGQKKLEVPIPIPSPEEAKEFADEIADMLAEQNGGNIKIEVEVFRLPPVPPEDQGSAG [r5_87_TrROS] :: 2.2 kcal/mol
SAGGSAGGSAKKIKIKIKVYNPETKEVLELEIEVSEEEAEELAKKLAEELEKKGYKIEEVEISAGGSAGGSA [r18_3_TrROS_Hall] :: 3.47 kcal/mol
SMPPEDPGELTLVVPDTRNVTVTLPVPVPPEARVLVTFSDGRRVEAPAGTELTFTIPPGRPYVIRVEVYASA [r9_79_TrMRF] :: 1.86 kcal/mol
SAGGSKTVTVTVRIKVTNEDGEELTVTARLTYNEETGEVTVEIEMSPEALERLRELFPDVKIEIYPSAGGSA [r2_409_TrROS_Hall] :: 3.09 kcal/mol

Then there is this sequence:
Give its folding stability dG unfold value. Item: SAGGSAGGSAGGKPTITVTYDKENNTVTITFPDGSKIEITVPENATEEEVKKLVEELAKSAGGSAGGSAGGS [r10_33_TrROS_Hall]
3.13 kcal/mol

====

# testDescription: folding stability dG unfold from trypsin proteolysis; higher = more stable
recordedEndpoint: folding stability dG unfold (kcal/mol)
API: value field is a number in kcal/mol; no unit string.

Some solved cases for reference:
SAGGSGKKVKIKINIVVVFPPGDPDLAKEIAKWFARTIARELQAQGFEDIKDIEIRVHVIPPNQPGFSAGGS [r16_289_TrROS] :: 3.11
SAGGSAGGSKKKVKVVKVEKPEGDYYVVTVYYEDGKLLKKVVFPKGVKPEEVLEKVKKLVEEESAGGSAGGS [r12_798_TrMRF] :: 1.95
SAGGSAGGSAGGSYIIVQFPADEIKEALPPGFEIKSIERSPKNGWVMVAIRYPKDGKPISAGGSAGGSAGGS [r4_435_TrROS] :: 1.04

Now consider a different sequence.
Suppose we examine the sequence SAGGSAGGSAGGSQDLVKITIKLPGGEEKEITTPAEEIDKAIKELGIKKEDVEILEITEVSAGGSAGGSAGG [r7_211_JUSTAS] ; what folding stability dG unfold value has been reported?
1.13
